Data provenance: PubChem BioAssay AID1963834

system: 873145-292-R-J1-PDC complex spheroid viability; assay: Anticancer human tumor 873145-292-R-J1-PDC patient-derived renal clear cell carcinoma cell line growth inhibition [POLQ]; conditions: second compound 3.16 µM; first compound 3.16 µM; stronger effect = lower value
measure-name: viability, T/C

Task item: For COc1cc(C2c3cc4c(cc3C(OC3OC5COC(C)OC5C(O)C3O)C3COC(=O)C23)OCO4)cc(OC)c1O (stereo not given) + Cc1cccc(N(C)C(=O)C2C(O)CCN2c2nc(C)cc(C(F)(F)F)c2C#N)c1 , what is its reported viability, T/C?
Reply: 74%

Task item: For CC1COCCN1c1cc(C2(O)CC3CCC(C2)O3)c2cnn(-c3ccn[nH]3)c2n1 (stereo not given) + COC1C(OC(N)=O)C(O)C(Oc2ccc3c(O)c(NC(=O)c4ccc(O)c(CC=C(C)C)c4)c(=O)oc3c2C)OC1(C)C , what is its reported viability, T/C?
Reply: 36.2%

====

List of viability, T/C values.
tested on: 873145-292-R-J1-PDC complex spheroid viability; assay: Anticancer human tumor 873145-292-R-J1-PDC cell line growth inhibition [POLQ]; details: second compound 0.1 µM; first compound 0.0316 µM; stronger effect = lower value;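 also: luminescence signal used as surrogate for viable cell content; spheroids exposed to compounds for 7 days before viability readout; 100% = DMSO vehicle control viability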
Lab book: enter the figure in %, no units written.

As a guide, the following entries are already answered.
compound	tested-on	unit-label	observed-value
C=CC(=O)N1CCN(c2nc(=O)n(-c3c(C)ccnc3C(C)C)c3nc(-c4c(O)cccc4F)c(F)cc23)C(C)C1 (stereo not given) + COC1C(OC(N)=O)C(O)C(Oc2ccc3c(O)c(NC(=O)c4ccc(O)c(CC=C(C)C)c4)c(=O)oc3c2C)OC1(C)C	873145-292-R-J1-PDC complex spheroid viability	%	98.7
COc1cccc2c1C(=O)c1c(O)c3c(c(O)c1C2=O)CC(O)(C(=O)CO)CC3OC1CC(N)C(O)C(C)O1 (stereo not given) + Nc1ccc(C#CCN(C(=O)Cc2ncc(C(F)(F)F)cc2C(F)(F)F)c2ccc(F)cc2)nn1	873145-292-R-J1-PDC complex spheroid viability	%	113

Task item: For CCCS(=O)(=O)Nc1ccc(F)c(C(=O)c2c[nH]c3ncc(-c4ccc(Cl)cc4)cc23)c1F + Nc1ccc(C#CCN(C(=O)Cc2ncc(C(F)(F)F)cc2C(F)(F)F)c2ccc(F)cc2)nn1 , what is its reported viability, T/C?
Reply: 103

Task item: For CCc1cc2c(N3CCc4c(cc(Cn5ccnc5)cc4-c4cn(C)nc4C(F)(F)F)C3=O)cc(C)nc2c(OC)n1 + Nc1ccc(C#CCN(C(=O)Cc2ncc(C(F)(F)F)cc2C(F)(F)F)c2ccc(F)cc2)nn1 , what is its reported viability, T/C?
Reply: 103

Task item: For COc1cccc(OCCCN)c1-c1cc(Nc2cnc(C#N)cn2)n[nH]1 + Cc1cccc(N(C)C(=O)C2C(O)CCN2c2nc(C)cc(C(F)(F)F)c2C#N)c1 , what is its reported viability, T/C?
Reply: 65.9

====

test system: 873145-292-R-J1-PDC complex spheroid viability; assay: Anticancer human tumor 873145-292-R-J1-PDC cell line growth inhibition [POLQ]; conditions: second compound 1 µM; first compound 1 µM; stronger effect = lower value;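 also: luminescence signal used as surrogate for viable cell content; spheroids exposed to compounds for 7 days before viability readout; 100% = DMSO vehicle control viability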
List of viability, T/C values.
Lab book: enter the figure in %, no units written.

compound	viability, T/C [%]
COc1cccc(OCCCN)c1-c1cc(Nc2cnc(C#N)cn2)n[nH]1 + Cc1cccc(N(C)C(=O)C2C(O)CCN2c2nc(C)cc(C(F)(F)F)c2C#N)c1	79.1
O=C(c1cc(Cc2n[nH]c(=O)c3ccccc23)ccc1F)N1CCN(C(=O)C2CC2)CC1 + Nc1ccc(C#CCN(C(=O)Cc2ncc(C(F)(F)F)cc2C(F)(F)F)c2ccc(F)cc2)nn1	117
CC1COCCN1c1cc(C2(O)CC3CCC(C2)O3)c2cnn(-c3ccn[nH]3)c2n1 (stereo unspecified) + Nc1ccc(C#CCN(C(=O)Cc2ncc(C(F)(F)F)cc2C(F)(F)F)c2ccc(F)cc2)nn1	50.2
COc1ccc([C@@H](O)c2cc(-c3ncnc4cc(N5CCOCC5)ccc34)c(F)cc2Cl)nn1 + COC1C(OC(N)=O)C(O)C(Oc2ccc3c(O)c(NC(=O)c4ccc(O)c(CC=C(C)C)c4)c(=O)oc3c2C)OC1(C)C	68.1
COc1ccc([C@@H](O)c2cc(-c3ncnc4cc(N5CCOCC5)ccc34)c(F)cc2Cl)nn1 + Cc1cccc(N(C)C(=O)C2C(O)CCN2c2nc(C)cc(C(F)(F)F)c2C#N)c1	72.5
CC1COCCN1c1cc(-c2ccnn2C)c2ccnc(-c3ccn[nH]3)c2n1 (stereo unspecified) + COC1C(OC(N)=O)C(O)C(Oc2ccc3c(O)c(NC(=O)c4ccc(O)c(CC=C(C)C)c4)c(=O)oc3c2C)OC1(C)C	47.6

Task item: For CC1COCCN1c1cc(C2(O)CC3CCC(C2)O3)c2cnn(-c3ccn[nH]3)c2n1 (stereo unspecified) + Cc1cccc(N(C)C(=O)C2C(O)CCN2c2nc(C)cc(C(F)(F)F)c2C#N)c1 , what is its reported viability, T/C?
Reply: 44.1

Task item: For CC(C)n1c(=O)n(C)c2cnc3cc(F)c(-c4ccc(OCCCN5CCCCC5)nc4)cc3c21 + Nc1ccc(C#CCN(C(=O)Cc2ncc(C(F)(F)F)cc2C(F)(F)F)c2ccc(F)cc2)nn1 , what is its reported viability, T/C?
Reply: 96

Task item: For O=C(c1cc(Cc2n[nH]c(=O)c3ccccc23)ccc1F)N1CCN(C(=O)C2CC2)CC1 + COC1C(OC(N)=O)C(O)C(Oc2ccc3c(O)c(NC(=O)c4ccc(O)c(CC=C(C)C)c4)c(=O)oc3c2C)OC1(C)C , what is its reported viability, T/C?
Reply: 87.2

Task item: For C=CCn1c(=O)c2cnc(Nc3ccc(N4CCN(C)CC4)cc3)nc2n1-c1cccc(C(C)(C)O)n1 + Nc1ccc(C#CCN(C(=O)Cc2ncc(C(F)(F)F)cc2C(F)(F)F)c2ccc(F)cc2)nn1 , what is its reported viability, T/C?
Reply: 69.3

====

List of viability, T/C values.
system: 873145-292-R-J1-PDC complex spheroid viability; experiment: Anticancer human tumor 873145-292-R-J1-PDC cell line growth inhibition [POLQ]; conditions: second compound 10 µM; first compound 1 µM; stronger effect = lower value;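 also: luminescence signal used as surrogate for viable cell content; spheroids exposed to compounds for 7 days before viability readout; 100% = DMSO vehicle control viability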
Lab book: enter the figure in %, no units written.

compound	observed-value
COc1ccc([C@@H](O)c2cc(-c3ncnc4cc(N5CCOCC5)ccc34)c(F)cc2Cl)nn1 + Nc1ccc(C#CCN(C(=O)Cc2ncc(C(F)(F)F)cc2C(F)(F)F)c2ccc(F)cc2)nn1	81
COc1cccc(OCCCN)c1-c1cc(Nc2cnc(C#N)cn2)n[nH]1 + Cc1cccc(N(C)C(=O)C2C(O)CCN2c2nc(C)cc(C(F)(F)F)c2C#N)c1	91.8

Consider now this further compound.
Task item: Any idea what viability, T/C came out for COc1cc2cc(C(=O)CCC(=O)O)sc2cc1OC + COC1C(OC(N)=O)C(O)C(Oc2ccc3c(O)c(NC(=O)c4ccc(O)c(CC=C(C)C)c4)c(=O)oc3c2C)OC1(C)C on 873145-292-R-J1-PDC complex spheroid viability?
Reply: 97.6

====

test system: 873145-292-R-J1-PDC complex spheroid viability; assay: Anticancer human tumor 873145-292-R-J1-PDC cell line growth inhibition [POLQ]; settings: second compound 0.1 µM; first compound 0.0316 µM; stronger effect = lower value;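 also: luminescence signal used as surrogate for viable cell content; spheroids exposed to compounds for 7 days before viability readout; 100% = DMSO vehicle control viability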
List of viability, T/C values.
Lab book: enter the figure in %, no units written.

molecule	viability, T/C (%)
C#Cc1c(F)ccc2cc(O)cc(-c3ncc4c(N5CC6CCC(C5)N6)nc(OCC56CCCN5CC(F)C6)nc4c3F)c12 (stereo not given) + Nc1ccc(C#CCN(C(=O)Cc2ncc(C(F)(F)F)cc2C(F)(F)F)c2ccc(F)cc2)nn1	115

Task item: For CNCc1ccc(-c2[nH]c3cc(F)cc4c3c2CCNC4=O)cc1 + Nc1ccc(C#CCN(C(=O)Cc2ncc(C(F)(F)F)cc2C(F)(F)F)c2ccc(F)cc2)nn1 , what is its reported viability, T/C?
Reply: 107

Task item: For CC1COCCN1c1cc(-c2ccnn2C)c2ccnc(-c3ccn[nH]3)c2n1 (stereo not given) + Nc1ccc(C#CCN(C(=O)Cc2ncc(C(F)(F)F)cc2C(F)(F)F)c2ccc(F)cc2)nn1 , what is its reported viability, T/C?
Reply: 102

Task item: For CC(C)n1c(=O)n(C)c2cnc3cc(F)c(-c4ccc(OCCCN5CCCCC5)nc4)cc3c21 + Nc1ccc(C#CCN(C(=O)Cc2ncc(C(F)(F)F)cc2C(F)(F)F)c2ccc(F)cc2)nn1 , what is its reported viability, T/C?
Reply: 107

Task item: For COc1cc(C2c3cc4c(cc3C(OC3OC5COC(C)OC5C(O)C3O)C3COC(=O)C23)OCO4)cc(OC)c1O (stereo not given) + COC1C(OC(N)=O)C(O)C(Oc2ccc3c(O)c(NC(=O)c4ccc(O)c(CC=C(C)C)c4)c(=O)oc3c2C)OC1(C)C , what is its reported viability, T/C?
Reply: 112

Task item: For C#Cc1c(F)ccc2cc(O)cc(-c3ncc4c(N5CC6CCC(C5)N6)nc(OCC56CCCN5CC(F)C6)nc4c3F)c12 (stereo not given) + COC1C(OC(N)=O)C(O)C(Oc2ccc3c(O)c(NC(=O)c4ccc(O)c(CC=C(C)C)c4)c(=O)oc3c2C)OC1(C)C , what is its reported viability, T/C?
Reply: 102

Task item: For CC1COCCN1c1cc(-c2ccnn2C)c2ccnc(-c3ccn[nH]3)c2n1 (stereo not given) + Cc1cccc(N(C)C(=O)C2C(O)CCN2c2nc(C)cc(C(F)(F)F)c2C#N)c1 , what is its reported viability, T/C?
Reply: 99.3

Task item: For CCc1c2c(nc3ccc(O)cc13)-c1cc3c(c(=O)n1C2)COC(=O)[C@]3(O)CC + COC1C(OC(N)=O)C(O)C(Oc2ccc3c(O)c(NC(=O)c4ccc(O)c(CC=C(C)C)c4)c(=O)oc3c2C)OC1(C)C , what is its reported viability, T/C?
Reply: 53.7

Task item: For CCc1cc2c(N3CCc4c(cc(Cn5ccnc5)cc4-c4cn(C)nc4C(F)(F)F)C3=O)ccnc2c(OC)n1 + Cc1cccc(N(C)C(=O)C2C(O)CCN2c2nc(C)cc(C(F)(F)F)c2C#N)c1 , what is its reported viability, T/C?
Reply: 99.6

Task item: For COc1ccc([C@@H](O)c2cc(-c3ncnc4cc(N5CCOCC5)ccc34)c(F)cc2Cl)nn1 + Cc1cccc(N(C)C(=O)C2C(O)CCN2c2nc(C)cc(C(F)(F)F)c2C#N)c1 , what is its reported viability, T/C?
Reply: 105
